The reader will find reported Emax values listed item by item below.
- Test target: sGC α1/β1 heterodimer (Homo sapiens, UniProt Q02108+Q02153)
- Construct: expressed in transfected cells; host or cells: CHO-K1 (clone #7, CHO-K1/sGC)
- Sequence (Q02108 whole entry): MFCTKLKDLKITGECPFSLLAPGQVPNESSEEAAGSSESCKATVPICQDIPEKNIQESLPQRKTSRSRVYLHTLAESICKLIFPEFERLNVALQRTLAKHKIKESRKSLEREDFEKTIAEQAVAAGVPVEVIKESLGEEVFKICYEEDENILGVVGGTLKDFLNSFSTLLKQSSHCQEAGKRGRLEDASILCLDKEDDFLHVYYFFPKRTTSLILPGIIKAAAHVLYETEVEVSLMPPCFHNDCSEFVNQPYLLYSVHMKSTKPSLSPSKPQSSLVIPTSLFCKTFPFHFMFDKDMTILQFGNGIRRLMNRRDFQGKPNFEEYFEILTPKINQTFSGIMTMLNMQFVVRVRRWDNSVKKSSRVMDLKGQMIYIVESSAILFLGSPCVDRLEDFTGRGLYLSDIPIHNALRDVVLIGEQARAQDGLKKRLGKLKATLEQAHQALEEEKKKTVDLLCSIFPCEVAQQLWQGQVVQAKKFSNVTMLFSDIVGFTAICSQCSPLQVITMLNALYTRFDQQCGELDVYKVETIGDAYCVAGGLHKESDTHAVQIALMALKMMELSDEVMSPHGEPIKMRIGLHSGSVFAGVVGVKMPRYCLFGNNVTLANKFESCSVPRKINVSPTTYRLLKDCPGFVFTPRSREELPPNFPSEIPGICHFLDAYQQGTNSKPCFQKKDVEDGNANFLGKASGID
- Sequence (Q02153 whole entry): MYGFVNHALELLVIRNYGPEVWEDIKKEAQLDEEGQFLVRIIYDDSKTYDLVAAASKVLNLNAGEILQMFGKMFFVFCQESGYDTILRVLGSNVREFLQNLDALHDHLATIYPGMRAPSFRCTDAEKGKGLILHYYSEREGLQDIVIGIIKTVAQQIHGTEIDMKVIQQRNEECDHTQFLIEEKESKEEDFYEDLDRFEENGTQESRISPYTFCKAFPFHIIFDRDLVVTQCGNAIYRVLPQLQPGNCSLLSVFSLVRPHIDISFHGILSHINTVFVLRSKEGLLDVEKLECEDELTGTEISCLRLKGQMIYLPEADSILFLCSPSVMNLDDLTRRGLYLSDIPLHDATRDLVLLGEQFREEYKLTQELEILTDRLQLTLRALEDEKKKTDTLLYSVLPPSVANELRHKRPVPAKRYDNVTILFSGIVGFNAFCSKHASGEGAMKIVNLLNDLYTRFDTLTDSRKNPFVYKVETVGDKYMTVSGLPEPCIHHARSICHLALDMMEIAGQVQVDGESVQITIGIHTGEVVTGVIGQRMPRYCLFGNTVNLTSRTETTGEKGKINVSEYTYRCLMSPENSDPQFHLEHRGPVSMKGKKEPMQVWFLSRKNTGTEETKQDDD
- Method summary: Cell-based sGC functional assay (CASA assay): cGMP generation in CHO-K1/sGC cells, HTRF detection
- Condition details: CHO-K1, percent activation relative to standard Compound A in CHO-K1/sGC cells; read-out: % Act.
Give the value in % but do not write % after it.

>  <Compound>
CC1(c2ccc(F)cc2)C(=O)Nc2nc(-c3cn4ccnc4c(CCC(F)(F)C(F)(F)F)n3)nc(N3CCCC3)c21 (centres unmarked) [Example 301A]

>  <Emax, %>
116

$$$$
>  <Compound>
CC(C)Cc1nc(-c2nc(N)c3c(n2)NC(=O)C3(C)c2ccc(Cl)cc2)cn2ccnc12 (centres unmarked) [Example 20A]

>  <Emax, %>
108

$$$$
>  <Compound>
CCCCc1nc(-c2nc(N)c3c(n2)NC(=O)C3(c2ccc(C(F)(F)F)cn2)C2CC2)cn2ccnc12 (centres unmarked) [Example 133A]

>  <Emax, %>
129

$$$$
>  <Compound>
CC1(c2ccccc2)C(=O)Nc2nc(-c3cn4c(Br)cnc4c(CCC(F)(F)F)n3)nc(N)c21 (centres unmarked) [Example 265B]

>  <Emax, %>
121

$$$$

Read off the recorded Emax for Cc1cn2cc(-c3nc(N)c4c(n3)NC(=O)C4(C)c3ccc(F)cn3)nc(CCC(F)(F)C(F)(F)F)c2n1 (centres unmarked) [Example 172A]
124

---

- Test target: sGC α1/β1 heterodimer (Homo sapiens, UniProt Q02108+Q02153)
- Construct: expressed in transfected cells; host or cells: CHO-K1 (clone #7, CHO-K1/sGC)
- Method summary: Cell-based sGC functional assay (CASA assay): cGMP generation in CHO-K1/sGC cells, HTRF detection
- Condition details: CHO-K1, percent activation relative to standard Compound A in CHO-K1/sGC cells; read-out: % Act.
Experimental readout: Emax
Answer as a quantity: numeral, then unit.

Examples from the recorded data:
>  <Compound>
CCCc1nc(-c2nc(N)c3c(n2)NC(=O)C3(C)c2ccc(OC(F)(F)F)cc2)cn2ccnc12 (stereo not shown) [Example 24A]

>  <Emax>
104%

$$$$
>  <Compound>
Nc1nc(-c2cn3ccnc3c(CCCC(F)(F)F)n2)nc2c1C(c1ccc(Cl)cc1)(C1CC1)C(=O)N2 (stereo not shown) [Example 316B]

>  <Emax>
156%

$$$$
>  <Compound>
CCC1(c2ccc(Cl)cc2)C(=O)Nc2nc(-c3cn4ccnc4c(CCCC(F)(F)F)n3)nc(N)c21 (stereo not shown) [Example 209B]

>  <Emax>
111%

$$$$
>  <Compound>
CC(C)(C)CCc1nc(-c2nc(N)c3c(n2)NC(=O)C3(C)c2ccc(Cl)cn2)cn2ccnc12 (stereo not shown) [Example 123A]

>  <Emax>
105%

$$$$
>  <Compound>
CC1(c2ccc(Br)cc2)C(=O)Nc2nc(-c3cn4ccnc4c(CCC(F)(F)F)n3)nc(N)c21 (stereo not shown) [Example 181A]

>  <Emax>
132%

$$$$

State Emax (sGC α1/β1 heterodimer (Homo sapiens, UniProt Q02108+Q02153)) of Nc1nc(-c2cn3ccnc3c(Cc3ccccc3F)n2)nc2c1C(c1ccc(Cl)cn1)(C1CC1)C(=O)N2 (single isomer, unassigned) [Example 110B] .
151%

State Emax (sGC α1/β1 heterodimer (Homo sapiens, UniProt Q02108+Q02153)) of CC1(c2ccccc2)C(=O)Nc2nc(-c3cn4ccnc4c(CCC(F)(F)C(F)(F)F)n3)nc(N)c21 (stereo not shown) [Example 232B] .
60%

State Emax (sGC α1/β1 heterodimer (Homo sapiens, UniProt Q02108+Q02153)) of CC(C)C1(c2ccc(Cl)cc2)C(=O)Nc2nc(-c3cn4ccnc4c(CCC(F)(F)F)n3)nc(N)c21 (stereo not shown) [Example 203B] .
115%

State Emax (sGC α1/β1 heterodimer (Homo sapiens, UniProt Q02108+Q02153)) of CCCCc1nc(-c2nc(N)c3c(n2)NC(=O)C3(c2cnc(C)cn2)C2CC2)cn2ccnc12 (single isomer, unassigned) [Example 352B] .
96%

State Emax (sGC α1/β1 heterodimer (Homo sapiens, UniProt Q02108+Q02153)) of CCc1cn2cc(-c3nc(N)c4c(n3)NC(=O)C4(C)c3ccc(F)cc3)nc(CCC(F)(F)C(F)(F)F)c2n1 (stereo not shown) [Example 159A] .
103%

State Emax (sGC α1/β1 heterodimer (Homo sapiens, UniProt Q02108+Q02153)) of CN1CCN(c2nc(-c3cn4ccnc4c(CCC(F)(F)C(F)(F)F)n3)nc3c2C(C)(c2ccc(F)cn2)C(=O)N3)CC1 (stereo not shown) [Example 295B] .
96%

State Emax (sGC α1/β1 heterodimer (Homo sapiens, UniProt Q02108+Q02153)) of Nc1nc(-c2cn3ccnc3c(CCC(F)(F)F)n2)nc2c1C(c1ccc(F)c(F)c1)(C1CC1)C(=O)N2 (stereo not shown) [Example 318A] .
127%

State Emax (sGC α1/β1 heterodimer (Homo sapiens, UniProt Q02108+Q02153)) of Cc1nnc(C2(C)C(=O)Nc3nc(-c4cn5ccnc5c(Cc5ccc(F)cc5)n4)nc(N)c32)o1 (single isomer, unassigned) [Example 29A] .
102%
